FYI, the data here is from PubChem BioAssay.

Subject of test: Nuclear receptor coactivator 3 (Homo sapiens)
Test details: SRC3 coactivator transcriptional activity inhibitors, confirmation, cell-based, luminescence, quadruplicate (AID 588792)
Settings: HEK293 GAL4-SRC3 luciferase reporter, at 3.6 µM
The source made the active and inactive calls.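 The calls were made as follows: active = mean inhibition over 43.08%, the solvent-only control mean plus 3 SD; inactive = the rest.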
Tick one outcome: active, inactive

[in] // return assay outcome for `CCn1cc(/C=C/c2cc[n+](C)cc2)c2ccccc21`
[out] inactive

[in] // return assay outcome for `COc1cc(-c2cc3nc4ccccc4n3c(N)c2C#N)cc(OC)c1OC`
[out] inactive

[in] // return assay outcome for `Cc1cc(C)c2c(N)c3ccccc3nc2n1`
[out] inactive

[in] // return assay outcome for `NC(=O)c1cccc(-c2cnc(N)c(C(=O)c3cccnc3)n2)c1`
[out] active

[in] // return assay outcome for CCc1cccc(CC)c1C(OC(C)=O)c1cccnc1 (stereo unspecified)
[out] inactive

[in] // return assay outcome for Cc1cccc2sc(NNC(=O)c3ccc(S(=O)(=O)N4CC(C)CC(C)C4)cc3)nc12 (stereo unspecified)
[out] inactive

[in] // return assay outcome for `CC(=O)c1c(C(C)=O)c(C)n(-c2ccc3ncccc3c2)c1C`
[out] inactive

[in] // return assay outcome for `Oc1ccc(Nc2nc(N3CCCC3)c3ccccc3n2)cc1`
[out] inactive

[in] // return assay outcome for `CC(C)(C)OC(=O)NCCCCCNC(=O)c1nc[nH]c1C(=O)NCCCCCNC(=O)OC(C)(C)C`
[out] inactive

[in] // return assay outcome for `CN(CCOc1ccc(Cl)cc1)C(=O)c1cccc(S(=O)(=O)N2CCN(c3ccc(F)cc3)CC2)c1`
[out] inactive

[in] // return assay outcome for CCCC(=O)NC(c1ccc(N(C)C)cc1)c1ccc2cccnc2c1O (stereo unspecified)
[out] active
